- ASSAY REMARKS: NCI Yeast Anticancer Drug Screen. Data for the cln2 rad14 strain (AID 165);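 also: 0% = growth equal to vehicle treated cultures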
- COND: S. cerevisiae cln2 rad14 strain, at 50.0 µM, active compounds read high
About 79,000 compounds went through this panel and 15% of them were active in at least one assay; those are over-represented in the sample as a whole.
// label = met if growth inhibition is not less than 10%, otherwise not met

# COMPOUND, GROUP LABEL
records = [
    ("Cn1cnc2ncnc(Oc3ccc(Cl)cc3)c21", "not met"),
    ("C/C(CC(=O)Nc1ccc(C)c(C)c1)=N\\NC(N)=S", "met"),
    ("O=S(=O)(NOCCCCONS(=O)(=O)c1ccccc1)c1ccccc1", "met"),
    ("COc1cc(C(=O)C/C(CCC(=O)Nc2ccccc2[N+](=O)[O-])=N\\NC(=O)C(N)=O)ccc1O", "not met"),
]

-- ask Determine whether this compound has growth inhibition no lower than 10%: CC(=O)OCC1Cn2c(c(-c3ccccc3)c(=O)[nH]c2=S)O1 (stereo not drawn)
-- reply not met

-- ask Now give it for CCCNC(=O)CCC(=O)NS(=O)(=O)c1ccc(Cl)cc1 too.
-- reply not met

-- ask Now give it for O=C1CC(c2ccccc2)Oc2cc(O)cc(O)c21 (stereo not drawn) too.
-- reply met

-- ask Now give it for COC(=O)C(CC(=O)Nc1ccc(C)cc1)C(=O)C(=O)Nc1c(C(C)C)cccc1C(C)C (stereo not drawn) too.
-- reply not met

-- ask Now give it for Cc1ccccc1C1OC(=O)c2ccc3ccccc3c21 (stereo not drawn) too.
-- reply not met

###

Kindly supply the reported growth inhibition values for the records listed here.
- ASSAY REMARKS: NCI Yeast Anticancer Drug Screen. Data for the bub3 strain (AID 167)
- COND: S. cerevisiae bub3 mutant strain, at 50.0 µM, active compounds read high
- Protocol: Growth inhibition of yeast strains with defined genetic alterations is measured as a screen for potential anti-cancer activity. Selected strains with alterations in DNA damage repair or cell cycle control were exposed to compounds and growth inhibition was measured relative to vehicle treated controls. The strain used in this assay is bub3
This is part of a sample that, as a whole, favours compounds with a hit. Of some 79,000 tested, about 15% had one in any assay.
Answers are plain numbers, in %.

Hi there! I need growth inhibition for each item below, if you can.
1. O=C1Cc2c(c3ccccc3c3ccccc23)C1
2. O=S1(=O)OCCOS(=O)(=O)C1(I)I
3. CC1(C)N=C(C(N)=O)c2ncn(CCCO)c2N1
4. Oc1ccccc1C=Nc1ccc(Cl)cc1
5. CCOC(=O)C(N=Cc1ccc([N+](=O)[O-])cc1)C(O)c1ccc([N+](=O)[O-])cc1 (stereo not given)
6. O=C1CCSSCCC(=O)Nc2ccccc2N1
7. N#CC12CC3(CCC1CCC1(C2)OCCO1)OCCO3 (stereo not given)

-- reply
1. 4
2. -9.7
3. -0.35
4. -21.6
5. 2.2
6. -18.1
7. 4.3

Hi there! I need growth inhibition for each item below, if you can.
1. Cc1cccc(C)c1NC(=O)N1CCN(C)CC1
2. CC1(C2(C)SCCS2)SCCS1
3. Clc1cc(Cl)cc(Nc2nc3ccccc3nc2-c2cccs2)c1
4. CCCCOC(=O)NC(Nc1ccc(S(=O)(=O)Nc2ccc(OC)nn2)cc1)(C(F)(F)F)C(F)(F)F
5. COc1ccc(-c2cc(-c3ccccc3)n(-c3ccccc3)n2)cc1

-- reply
1: -9.45; 2: -8.55; 3: -29.1; 4: -9.55; 5: 0.8
